- study.target: BRSK1 (human)
- procedure.details: KINOMEscan competition binding
- condition.details: compound 10.0 µM
quantity.measured: kinase still bound, per cent of control (%)

CCN1CCN(Cc2ccc(NC(=O)c3ccc(C)c(/C=C/c4cnc5[nH]ccc5c4OC)c3)cc2C(F)(F)F)CC1
100
COc1cc(C)c(Sc2cnc(NC(=O)c3ccc(CNC(C)C(C)C)cc3)s2)cc1C(=O)N1CCN(C(C)=O)CC1 (stereo not drawn)
100
COc1ccc(N(C(=O)Oc2cc(C(=O)Nc3cccc(C(F)(F)F)c3)ccc2C)c2ccnc(Nc3ccc(N4CCN(C)CC4)cc3)n2)c(OC)c1
100
N#C/C(=C1/Nc2ccccc2S1)c1ccnc(NCCc2cccnc2)n1
85
CC(=O)c1c(C)c2cnc(Nc3ccc(N4CCNCC4)cn3)nc2n(C2CCCC2)c1=O
68
Cc1cn(-c2cc(C(=O)Nc3ccc(C)c(NC(=O)c4ccno4)c3)cc(C(F)(F)F)c2)cn1
100
CCOc1cc(N2CCC(O)CC2)ccc1Nc1ncc2c(n1)N(C)c1ccccc1C(=O)N2C
100
COc1cc2ncnc(Nc3cccc(Cl)c3)c2cc1OC
37
CNC(=O)Nc1ccc(-c2nc(N3CC4CCC(C3)O4)c3cnn(C4CCC5(CC4)OCCO5)c3n2)cc1
100
CC1=C(C(=O)Nc2cc3cn[nH]c3cc2F)C(c2ccc(C(F)(F)F)cc2)CC(=O)N1 (stereo not drawn)
93
O=c1[nH]c2ccccc2n1C1CCN(Cc2ccc(-c3nc4cc5[nH]cnc5cc4nc3-c3ccccc3)cc2)CC1
100
CCN(CCO)CCCOc1ccc2c(Nc3cc(CC(=O)Nc4cccc(F)c4)[nH]n3)ncnc2c1
64
C=CC(=O)Nc1ccc(C(=O)c2sc(Nc3ccc(N4CCN(C)CC4)cc3OC)nc2N)cc1
98
CCCS(=O)(=O)Nc1ccc(F)c(C(=O)c2c[nH]c3ncc(Cl)cc23)c1F
55
CCc1nc(-c2cccc(C)c2)c(-c2ccnc(NC(=O)c3ccccc3)c2)s1
93
COc1cc(N2CCC(C(N)=O)CC2)ccc1Nc1nc(N)c(Cl)c(Nc2ccccc2S(=O)(=O)C(C)C)n1
100
N#Cc1cc(-c2ccnc(Nc3ccc(-n4cnc(-c5cccnc5)n4)cc3)n2)cc(N2CCOCC2)c1
85
COc1cc2c(Nc3ccc(NC(=O)c4ccccc4)cc3)ncnc2cc1OCCCN1CCOCC1
79
